# ASSAYED_SYSTEM: horseradish peroxidase (HRP) (Armoracia rusticana, UniProt P00433)
# Sequence (P00433 31-338 limits assumed): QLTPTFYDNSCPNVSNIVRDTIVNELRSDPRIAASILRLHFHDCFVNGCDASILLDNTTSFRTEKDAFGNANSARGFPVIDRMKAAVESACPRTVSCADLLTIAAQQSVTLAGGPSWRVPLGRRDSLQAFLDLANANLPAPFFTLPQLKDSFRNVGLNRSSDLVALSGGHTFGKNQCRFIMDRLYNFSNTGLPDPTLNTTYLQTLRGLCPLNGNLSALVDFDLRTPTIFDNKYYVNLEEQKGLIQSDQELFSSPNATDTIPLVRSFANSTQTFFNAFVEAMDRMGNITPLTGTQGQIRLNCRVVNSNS
# PROTOCOL_SUMMARY: biochemical
# Type: biochemical
# TEST_CONTEXT: HRP-H2O2/L-012 system, pH 7.5, 37 °C, 30 min; read-out: EC50 chemiluminescence assay
Overview of recorded pEC50 for various molecules
Answer as the number alone; pEC50 is minus log10 of concentration in mol/L.

Below are worked cases with known answers.
>>> measured_result("[I][Pd]([c]1ccccc1)([PH](c1ccccc1)(c1ccccc1)c1ccccc1)[PH](c1ccccc1)(c1ccccc1)c1ccccc1 [Complex 7]")
4.17
>>> measured_result("COc1cc[c]([Pd@SP2]([I])([PH](c2ccccc2)(c2ccccc2)c2ccccc2)[PH](c2ccccc2)(c2ccccc2)c2ccccc2)cc1 [Complex 1]")
5.45
>>> measured_result("[Cl][Pd@SP2]([c]1ccccc1)([PH](c1ccccc1)(c1ccccc1)c1ccccc1)[PH](c1ccccc1)(c1ccccc1)c1ccccc1 [Complex 9]")
4.41
>>> measured_result("CC(=O)Oc1cc[c]([Pd@SP2]([Br])([PH](c2ccccc2)(c2ccccc2)c2ccccc2)[PH](c2ccccc2)(c2ccccc2)c2ccccc2)cc1 [Complex 5]")
5.28
>>> measured_result("[Br][Pd@SP2]([c]1ccccc1)([PH](c1ccccc1)(c1ccccc1)c1ccccc1)[PH](c1ccccc1)(c1ccccc1)c1ccccc1 [Complex 8]")
4.48
>>> measured_result("COc1cc[c]([Pd@SP2]([Br])([PH](c2ccccc2)(c2ccccc2)c2ccccc2)[PH](c2ccccc2)(c2ccccc2)c2ccccc2)cc1 [Complex 2]")
5.83
>>> measured_result("CC(=O)Oc1cc[c]([Pd@SP2]([I])([PH](c2ccccc2)(c2ccccc2)c2ccccc2)[PH](c2ccccc2)(c2ccccc2)c2ccccc2)cc1 [Complex 4]")
4.95
>>> measured_result("O=c1c(O)c(-c2ccc(O)c(O)c2)oc2cc(O)cc(O)c12 [Qrcn, Quercetin, reference compound]")
5.15
>>> measured_result("COc1cc[c]([Pd@SP2]([Cl])([PH](c2ccccc2)(c2ccccc2)c2ccccc2)[PH](c2ccccc2)(c2ccccc2)c2ccccc2)cc1 [Complex 3]")
5.24

Next, consider the following molecule.
Ask: Read the entry CC(=O)Oc1cc[c]([Pd@SP2]([Cl])([PH](c2ccccc2)(c2ccccc2)c2ccccc2)[PH](c2ccccc2)(c2ccccc2)c2ccccc2)cc1 [Complex 6] and write its reported pEC50.
Result: 5.19

====

# PROTOCOL_SUMMARY: Antiradical efficiency (kinetic study via DPPH assay)
# TEST_CONTEXT: time needed to reach the steady state at the EC50 concentration, DPPH
QUANTITY_NAME: TEC50 (min)
Express it in min; write the number only.

Ask: Read the entry `[Cl][Pd@SP2]([c]1ccccc1)([PH](c1ccccc1)(c1ccccc1)c1ccccc1)[PH](c1ccccc1)(c1ccccc1)c1ccccc1` and write its reported TEC50.
Result: 36

Ask: Read the entry `CC(=O)Oc1cc[c]([Pd@SP2]([Br])([PH](c2ccccc2)(c2ccccc2)c2ccccc2)[PH](c2ccccc2)(c2ccccc2)c2ccccc2)cc1` and write its reported TEC50.
Result: 58

Ask: Read the entry `COc1cc[c]([Pd@SP2]([I])([PH](c2ccccc2)(c2ccccc2)c2ccccc2)[PH](c2ccccc2)(c2ccccc2)c2ccccc2)cc1` and write its reported TEC50.
Result: 11

====

Overview of recorded TEC50 for various molecules
# PROTOCOL_SUMMARY: Antiradical efficiency (kinetic study via DPPH assay)
# TEST_CONTEXT: time needed to reach the steady state at the EC50 concentration, DPPH
Express it in min; write the number only.

Below are worked cases with known answers.
>>> measured_result("O=c1c(O)c(-c2ccc(O)c(O)c2)oc2cc(O)cc(O)c12 [Qrcn, Quercetin, reference compound]")
61
>>> measured_result("[Br][Pd@SP2]([c]1ccccc1)([PH](c1ccccc1)(c1ccccc1)c1ccccc1)[PH](c1ccccc1)(c1ccccc1)c1ccccc1")
40

Next, consider the following molecule.
Ask: Read the entry `CC(=O)Oc1cc[c]([Pd@SP2]([Cl])([PH](c2ccccc2)(c2ccccc2)c2ccccc2)[PH](c2ccccc2)(c2ccccc2)c2ccccc2)cc1` and write its reported TEC50.
Result: 53
